# Test system: stable HCV 1a RLuc replicon cells (genotype 1a H77 replicon)
# Protocol summary: microbe, parasite or virus in culture
# Format: cell-based
# Measurement context: Hepatitis C virus, read-out: 1a (nM)
Some compounds, each annotated with its measured EC50.
Return type: number; implicit unit nM.

-- ask Report EC50 for COC(=O)N[C@H](C(=O)N1[C@@H](C)CC[C@H]1c1ncc(-c2ccc3c(c2)COc2cc4c(ccc5nc([C@@H]6CC[C@H](C)N6C(=O)[C@@H](NC(=O)OC)C(C)C)[nH]c54)cc2-3)[nH]1)C(C)C [Example NG] please.
-- reply 0.006

-- ask Try this compound next: COC(=O)N[C@H](C(=O)N1[C@@H]2C[C@@H]2C[C@H]1c1nc2ccc3cc4c(cc3c2[nH]1)OCc1cc(-c2cnc([C@@H]3CCCN3C(=O)[C@H](NC(=O)OC)c3ccccc3)[nH]2)ccc1-4)C(C)C [Compound 536]
-- reply 0.008

-- ask Try this compound next: COC(=O)N[C@H](C(=O)N1[C@@H](C)CC[C@H]1c1ncc(-c2ccc3c(c2)COc2cc4c(ccc5nc([C@@H]6CCCN6C(=O)[C@H](N)c6ccccc6)[nH]c54)cc2-3)[nH]1)C(C)C [Example NR]
-- reply 0.026

-- ask Try this compound next: COC[C@H]1C[C@@H](c2nc3ccc4cc5c(cc4c3[nH]2)OCc2cc(-c3cnc([C@@H]4CCCN4C(=O)[C@H](NC(=O)C4CC4)c4ccccc4)[nH]3)ccc2-5)N(C(=O)[C@@H](NC(=O)OC)C(C)C)C1 [Compound 510]
-- reply 0.021
